# Test system: Candida
# Protocol summary: Compound was tested for activity against Candida sp; Inactive
# Format: functional, organism-based
Activity calls are given as the source filed them. The rule behind the calls is not given here.
Measurement type: MIC

Solved cases below.
{"columns": ["Molecule", "MIC"],
 "data": [
  ["Cc1c(CN2CCSCC2)cc(-c2ccc(Cl)cc2)n1-c1ccc(Cl)cc1", "inactive"],
  ["Cc1c(CN2CCN(C)CC2)cc(-c2ccccc2)n1-c1ccc(Cl)cc1", "inactive"],
  ["Cc1c(CN2CCSCC2)cc(-c2ccc(Cl)cc2)n1-c1ccccc1", "inactive"],
  ["Cc1c(CN2CCN(C)CC2)cc(-c2ccc(Cl)cc2)n1-c1ccccc1", "inactive"]
]}

Give the measured MIC for Cc1c(CN2CCSCC2)cc(-c2ccccc2)n1-c1ccc(Cl)cc1
inactive
